# System: N. gonorrhoeae
# experiment summary: Post-antibiotic effect (PAE) against N. gonorrhoeae
# Assay type: cell-based, Neisseria gonorrhoeae
# condition parameters: strain FA 1090; 1 h exposure at 10×MIC
observation type: PAE (h)
Report the value in h with no unit label.

Worked examples follow.
- C[C@@H](c1nc(-c2ccc(C#N)cc2)cs1)[C@](O)(Cn1cncn1)c1cc(F)ccc1F [Isavuconazole]: 10
- C[C@@H](c1nc(-c2ccc(C#N)cc2)cs1)[C@](O)(Cn1cncn1)c1ccc(F)cc1F [Ravuconazole]: 12
- CC[C@H]1OC(=O)[C@H](C)[C@@H](O[C@H]2C[C@@](C)(OC)[C@@H](O)[C@H](C)O2)[C@H](C)[C@@H](O[C@@H]2O[C@H](C)C[C@H](N(C)C)[C@H]2O)[C@](C)(O)C[C@@H](C)CN(C)[C@H](C)[C@@H](O)[C@]1(C)O [Azithromycin]: 6

Lookup: Name the recorded PAE for CCC(C)n1ncn(-c2ccc(N3CCN(c4ccc(OCC5COC(Cn6cncn6)(c6ccc(Cl)cc6Cl)O5)cc4)CC3)cc2)c1=O (centres unmarked) [Itraconazole] .
Found: 4

Lookup: Value lookup for PAE; key = CO/N=C(\C(=O)N[C@@H]1C(=O)N2C(C(=O)O)=C(CSc3nc(=O)c(=O)[nH]n3C)CS[C@H]12)c1csc(N)n1 [Ceftriaxone]
Found: 4

###

Entries and their MIC values follow.
# Test system: L. crispatus
# experiment summary: MIC against commensal vaginal Lactobacillus strains
# Assay type: cell-based, Lactobacillus crispatus
# condition parameters: Lactobacillus crispatus, L. crispatus HM-638
# Text: N. gonorrhoeae pathogenesis greatly depends on colonization of the reproductive tract. One of the natural barriers of such colonization is an intact healthy microbiome. Species of lactobacilli present in the genitourinary tract play a significant role in hindering colonization by Neisseria(1). A healthy vaginal microbiome that is dominated by Lactobacillus spp. is less susceptible to N. gonorrhoeae infection and other sexually transmitted diseases (STDs). […]
Value expressed in µg/mL; do not type the unit.

* CC[C@H]1OC(=O)[C@H](C)[C@@H](O[C@H]2C[C@@](C)(OC)[C@@H](O)[C@H](C)O2)[C@H](C)[C@@H](O[C@@H]2O[C@H](C)C[C@H](N(C)C)[C@H]2O)[C@](C)(O)C[C@@H](C)CN(C)[C@H](C)[C@@H](O)[C@]1(C)O | 1

We next turn to a different molecule, shown below.
Lookup: Data request, read-out MIC, for CO/N=C(\C(=O)N[C@@H]1C(=O)N2C(C(=O)O)=C(CSc3nc(=O)c(=O)[nH]n3C)CS[C@H]12)c1csc(N)n1
Found: 4

###

# System: Bifidobacterium angulatum
# experiment summary: MIC against normal gut microbiota
# Type: cell-based
# condition parameters: Bifidobacterium angulatum (1 strain)
Parameter MIC Range: see the listing below.
Write the number in µg/mL without appending the unit.

Here's what some known entries look like.
- CO/N=C(\C(=O)N[C@@H]1C(=O)N2C(C(=O)O)=C(CSc3nc(=O)c(=O)[nH]n3C)CS[C@H]12)c1csc(N)n1: 0.125
- CC[C@H]1OC(=O)[C@H](C)[C@@H](O[C@H]2C[C@@](C)(OC)[C@@H](O)[C@H](C)O2)[C@H](C)[C@@H](O[C@@H]2O[C@H](C)C[C@H](N(C)C)[C@H]2O)[C@](C)(O)C[C@@H](C)CN(C)[C@H](C)[C@@H](O)[C@]1(C)O: 0.03
- C[C@@H]1CN2c3c(cc4c(N5C(=O)OC[C@@H]5C)noc4c3F)CC3(C(=O)NC(=O)NC3=O)[C@H]2[C@H](C)O1: 1

Lookup: Give its MIC Range value. Item: O=c1ccc2ncc(=O)n3c2n1C[C@H]3CN1CCC(NCc2cc3c(cn2)OCCC3)CC1
Found: 0.125
